Peroxidase activity for H2O2 reduction values, listed per item
tested on: yeast thioredoxin (Trx)/yeast Trx reductase (TR); assay: Peroxidase activity assay (H2O2 reduction, NADPH oxidation); type: biochemical; conditions: 50 μM test compound, 3 μM yeast Trx, 1.5 μM yeast TR, 250 μM NADPH, 1.2 mM H2O2, 30° C.; NADPH oxidized per minute
Hi! Could you send only the number? It should be in nmol/min, unit omitted.

// Peroxidase activity for H2O2 reduction value for CCN1C(=O)C2(C)SSCC1C(=O)N2CC (stereo not drawn) : 4.78

// Peroxidase activity for H2O2 reduction value for C=CCN1C(=O)C2SSC1C(=O)N2CC=C [Control compound (A5), reference compound] : 4.25

// Peroxidase activity for H2O2 reduction value for Cc1cccc(CN2C(=O)C3(C)SSCC2C(=O)N3C)n1 (stereo not drawn) : 4.94

// Peroxidase activity for H2O2 reduction value for CN1CCN2C(=O)C3CSSC2(C1)C(=O)N3C (stereo not drawn) : 8.81

// Peroxidase activity for H2O2 reduction value for CN1C(=O)C2CSSC1(C)C(=O)N2Cc1ccc(F)cc1F (stereo not drawn) : 3.82

// Peroxidase activity for H2O2 reduction value for CN1C(=O)C2(C)SSCC1C(=O)N2C (stereo not drawn) : 4.92

// Peroxidase activity for H2O2 reduction value for CN1CCN2C(=O)C3CSSC2(C1)C(=O)N3Cc1ccncc1 (stereo not drawn) : 7.97

// Peroxidase activity for H2O2 reduction value for CN1C(=O)C2CSSC1(C)C(=O)N2Cc1ccc2ccccc2n1 (stereo not drawn) : 4.80

----------
experiment: Cytotoxicity assay (WST-1), smooth muscle cell; settings: human, human aortic smooth muscle cells (HASMC)
property-name: CC50 at 24 h (µM)
Hi! Could you send only the number? It should be in µM, unit omitted.

// CC50 at 24 h value for CN1C(=O)C2CSSC1(C)C(=O)N2Cc1nc2ccccc2s1 (centres unmarked) : 98.5

----------
Degree of HAEC proliferation values, listed per item
test system: human aortic endothelial cell (HAEC); assay: VEGF-induced proliferation assay, HAEC (PrxII siRNA); format: cell-based; conditions: 5 nM, VEGF-A 25 ng/mL, percent of untreated control
Hi! Could you send only the number? It should be in %, unit omitted.

1) O=C1C2CSSC3(COCCN13)C(=O)N2Cc1ccccc1 (stereo not shown) : 147.3
2) CCN1C(=O)C2(C)SSCC1C(=O)N2CC (stereo not shown) : 120.3
3) CN1C(=O)C2(C)SSCC1C(=O)N2C (stereo not shown) : 143.7
4) CN1C(=O)C2CSSC1(C)C(=O)N2Cc1ccc2ccccc2n1 (stereo not shown) : 129.7
5) CN1CCN2C(=O)C3CSSC2(C1)C(=O)N3C (stereo not shown) : 122.6
6) CN1CCN2C(=O)C3CSSC2(C1)C(=O)N3Cc1ccccc1 (stereo not shown) : 122.7

The record that follows has no Degree of HAEC proliferation shown yet.
# value of Degree of HAEC proliferation, human aortic endothelial cell (HAEC), item CCN1C(=O)C23COCCN2C(=O)C1CSS3 (stereo not shown) = 122.8

----------
tested on: human aortic smooth muscle cells (HASMC); test: Cytotoxicity assay (WST-1), smooth muscle cell; settings: read-out: Cell cytotoxicity (CC50) Smooth muscle cell; 24 h, concentration corresponding to 50% cell viability
property-name: CC50

// CC50 value for O=C1C2CSSC3(CCCN13)C(=O)N2Cc1ccccc1 (stereo not shown) : > 500 µM

----------
system: hepatocytes; test: Cytotoxicity test, liver cell; settings: read-out: Cell cytotoxicity (CC50) Liver cell; concentration corresponding to 50% cell viability
property-name: CC50

// CC50 value for O=C1C2CSSC3(CCCN13)C(=O)N2Cc1ccccc1 (stereo not shown) : > 500 µM

----------
experiment: in vitro; details: human
CC50 values, listed per item

1. CN1C(=O)C2(Cc3ccccc3)SSCC1C(=O)N2C (centres unmarked) : > 500 µM

The record that follows has no CC50 shown yet.
// CC50 value for CN1C(=O)C2(C)SSCC1C(=O)N2C (centres unmarked) : > 500 µM

----------
system: human aortic smooth muscle cell (HASMC); test: PDGF-induced proliferation assay, HASMC (PrxII siRNA); assay type: cell-based; conditions: 5 nM, PDGF-BB 25 ng/mL, percent of untreated control
Quick rule for you: Degree of HASMC proliferation under 50% gets YES, anything else gets NO.

For CN1C(=O)C2CSSC1(C)C(=O)N2Cc1ccc2ccccc2n1 (stereo not shown) , is the recorded Degree of HASMC proliferation below the cut-off of 50%?
NO

For CN1CCN2C(=O)C3CSSC2(C1)C(=O)N3Cc1ccccc1 (stereo not shown) , is the recorded Degree of HASMC proliferation below the cut-off of 50%?
NO

For O=C1C2CSSC3(COCCN13)C(=O)N2Cc1ccccc1 (stereo not shown) , is the recorded Degree of HASMC proliferation below the cut-off of 50%?
YES

For CN1CCN2C(=O)C3CSSC2(C1)C(=O)N3C (stereo not shown) , is the recorded Degree of HASMC proliferation below the cut-off of 50%?
NO

For CCN1C(=O)C23COCCN2C(=O)C1CSS3 (stereo not shown) , is the recorded Degree of HASMC proliferation below the cut-off of 50%?
NO

For CN1C(=O)C2(C)SSCC1C(=O)N2C (stereo not shown) , is the recorded Degree of HASMC proliferation below the cut-off of 50%?
YES

For CCN1C(=O)C2(C)SSCC1C(=O)N2CC (stereo not shown) , is the recorded Degree of HASMC proliferation below the cut-off of 50%?
NO

----------
assay: Cytotoxicity test, liver cell; details: hepatocytes
property-name: CC50 (µM)
Hi! Could you send only the number? It should be in µM, unit omitted.

// CC50 value for CN1C(=O)C2CSSC1(C)C(=O)N2Cc1nc2ccccc2s1 (stereo not shown) [Compound 15] : 157

----------
tested on: human aortic endothelial cell (HAEC); assay: VEGF-induced proliferation assay, HAEC (PrxII siRNA); assay type: cell-based; conditions: 100 nM, VEGF-A 25 ng/mL, percent of untreated control
property-name: Degree of HAEC proliferation (%)
Hi! Could you send only the number? It should be in %, unit omitted.

// Degree of HAEC proliferation value for CN1C(=O)C2CSSC1(C)C(=O)N2Cc1ccc2ccccc2n1 (stereo not shown) [Compound 5] : 180.1

// Degree of HAEC proliferation value for CCN1C(=O)C2(C)SSCC1C(=O)N2CC (stereo not shown) [Compound 20] : 187.6

// Degree of HAEC proliferation value for CN1CCN2C(=O)C3CSSC2(C1)C(=O)N3Cc1ccccc1 (stereo not shown) [Compound 21] : 141.2

// Degree of HAEC proliferation value for CN1CCN2C(=O)C3CSSC2(C1)C(=O)N3C (stereo not shown) [Compound 23] : 133.0

// Degree of HAEC proliferation value for CN1C(=O)C2(C)SSCC1C(=O)N2C (stereo not shown) [Compound 1] : 170.2

// Degree of HAEC proliferation value for O=C1C2CSSC3(COCCN13)C(=O)N2Cc1ccccc1 (stereo not shown) [Compound 8] : 161.6

// Degree of HAEC proliferation value for CCN1C(=O)C23COCCN2C(=O)C1CSS3 (stereo not shown) [Compound 10] : 159.0

----------
system: human aortic endothelial cell (HAEC); assay: VEGF-induced proliferation assay, HAEC (PrxII siRNA); type: cell-based; conditions: Homo sapiens, Endothelial cell, effective concentration increasing cell proliferation by 50%, VEGF-stimulated
property-name: pEC50
To interpret pEC50, take it as minus log10 of a concentration measured in moles per litre.

Previously resolved entries follow.
1. CCN1C(=O)C23COCCN2C(=O)C1CSS3 (stereo not shown) : 7.71
2. CN1CCN2C(=O)C3CSSC2(C1)C(=O)N3C (stereo not shown) : 8.01
3. CN1C(=O)C2CSSC1(C)C(=O)N2Cc1ccc2ccccc2n1 (stereo not shown) : 8.27

// pEC50 value for O=C1C2CSSC3(COCCN13)C(=O)N2Cc1ccccc1 (stereo not shown) : 8.30

// pEC50 value for CCN1C(=O)C2(C)SSCC1C(=O)N2CC (stereo not shown) : 7.99

// pEC50 value for CN1C(=O)C2(C)SSCC1C(=O)N2C (stereo not shown) : 8.31

// pEC50 value for CN1CCN2C(=O)C3CSSC2(C1)C(=O)N3Cc1ccccc1 (stereo not shown) : 8.00

----------
system: human aortic endothelial cells (HAEC); test: Cytotoxicity assay (WST-1), endothelial cell; settings: read-out: Cell cytotoxicity (CC50) Endothelial cell; 24 h, concentration corresponding to 50% cell viability
property-name: CC50

// CC50 value for O=C1C2CSSC3(CCCN13)C(=O)N2Cc1ccccc1 (stereo not shown) [Compound 7] : > 500 µM

----------
pEC50 values, listed per item
system: NIH-3T3 cells; test: Intracellular H2O2-eliminating activity (CM-H2DCF-DA fluorescence); assay type: cell-based; details: Mus musculus, NIH3T3, glucose oxidase, concentration at 50% reduction of intracellular H2O2
To interpret pEC50, take it as minus log10 of a concentration measured in moles per litre.

1. O=C1C2CSSC3(COCCN13)C(=O)N2Cc1ccccc1 (stereo not drawn) : 8.18
2. CN1C(=O)C2(C)SSCC1C(=O)N2C (stereo not drawn) : 8.08
3. CN1C(=O)C2CSSC1(C)C(=O)N2Cc1ccc2ccccc2n1 (stereo not drawn) : 8.11

// pEC50 value for CN1C(=O)C2CSSC1(C)C(=O)N2Cc1ccccc1 (stereo not drawn) : 8.19

// pEC50 value for CN1C(=O)C2CSSC1(C)C(=O)N2Cc1ccccn1 (stereo not drawn) : 8.22

// pEC50 value for C=CCN1C(=O)C2SSC1C(=O)N2CC=C [Control compound (A5), reference compound] : 7.82

Reference for the values: patent US20260008784A1
